- TEST NAME: physchem
- Type: physicochemical
- CONDITION: pH 7.8
- Procedure: The log P values were measured in accordance with EEC Directive 79/831 Annex V.A8 by HPLC (High Performance Liquid Chromatography) on reversed-phase columns (C 18) using the methods below: [c] The LC-MS determination in the neutral range was carried out at pH 7.8 using the mobile phases 0.001 molar aqueous ammonium bicarbonate solution and acetonitrile linear gradient from 10% acetonitrile to 95% acetonitrile.
What log p was measured for each of the following?

Query block: Tell me the measured log p of C[C@H]1COC(=O)N1c1cccc(Nc2ncc(Cl)c(N3CCC3)n2)c1 [Example 230] , please.
Result block: 2.75[c];

Query block: Report log p for C[C@H]1COC(=O)N1c1cccc(Nc2ncc(Cl)c(NC3CC3)n2)c1 [Example 92] please.
Result block: 2.42[c];

Query block: # input compound: CCC1CC(C)C(=O)N1c1cccc(Nc2ncc(Br)c(NC3CC3)n2)c1 (centres unmarked) [Example 208] ; wanted: its log p
Result block: 3.31[c];

Query block: Please look up its log p: O=C1CCCN1c1cccc(Nc2ncc(C(F)(F)F)c(NCC(F)(F)F)n2)c1 [Example 306]
Result block: 2.66[c];

Query block: Which measured log p value corresponds to O=C1C[C@@H](O)CN1c1cccc(Nc2ncc(Cl)c(NC3CC3)n2)c1 [Example 108] ?
Result block: 1.68[c]

----------
- TEST NAME: physchem
- Type: physicochemical
- CONDITION: pH 7
READOUT: chromatographic logP

Query block: Can you share its chromatographic logP? I mean this compound: "S=C1CCCN1c1cccc(Nc2ncc(Cl)c(NC3CC3)n2)c1"
Result block: 2.54

----------
- TEST NAME: log P by LC-MS, method [b], acid range pH 2.7
- Format: physicochemical
- CONDITION: pH 2.7
READOUT: log p

Query block: // returns reported log p for input "C[C@H]1COC(=O)N1c1cccc(Nc2ncc(Cl)c(NC3CC3)n2)c1"
Result block: 1.54[b]

Query block: Which measured log p value corresponds to "O=C1COCCN1c1cccc(Nc2ncc(Cl)c(NCC(F)(F)F)n2)c1" ?
Result block: 1.73[b]

Query block: Name the recorded log p for CC1CCC(=O)N1c1cccc(Nc2ncc(Br)c(NC3CC3)n2)c1 (stereo not drawn) .
Result block: 1.72[b]

Query block: # lookup: log p of "O=C1CCCN1c1cccc(Nc2ncc(C(F)(F)F)c(NCC(F)(F)C(F)(F)F)n2)c1"
Result block: 3.1[b]

Query block: Data request, read-out log p, for CC(C)C1COC(=O)N1c1cccc(Nc2ncc(C(F)(F)F)c(NC3CC3)n2)c1 (stereo not drawn)
Result block: 3.04[b]

Query block: Recorded log p of CC1CC1Nc1nc(Nc2cccc(N3C(=O)CC(C)(C)C3=O)c2)ncc1Cl (stereo not drawn) , please.
Result block: 2.09[b]

Query block: Which log p is reported for this compound? "CN(c1cccc(N2CCCC2=O)c1)c1ncc(Cl)c(NC2CCC2)n1"
Result block: 1.63[b]

Query block: So what's the measured log p for this one? "O=C1OCCN1c1cccc(Nc2ncc(Br)c(NCC(F)F)n2)c1"
Result block: 1.71[b]

Query block: Need log p of COCC(C)Nc1nc(Nc2cccc(N3C(=O)OC[C@@H]3C(C)C)c2)ncc1Cl (stereo partly drawn) , thanks.
Result block: 2.1[b]

Query block: What value of log p has been recorded for this entry: CC(C)C1COC(=O)N1c1cccc(Nc2ncc(Br)c(NC3CCC3)n2)c1 (stereo not drawn)
Result block: 2.54[b]

Query block: What measured log p goes with "O=C1CCCN1c1cccc(Nc2ncc(C(F)(F)F)c(NC3COC3)n2)c1" ?
Result block: 1.84[b]

Query block: Find the recorded log p belonging to CC(C)Nc1nc(Nc2cccc(N3C(=O)CC(C)C3=O)c2)ncc1Cl (stereo not drawn) and report it.
Result block: 1.59[b]

Query block: Which log p value is on record for COC(=O)C1CC(=O)N(c2cccc(Nc3ncc(Cl)c(NC4CC4)n3)c2)C1 (stereo not drawn) ?
Result block: 1.52[b]

Query block: So what does the record say about log p for COCC(C)Nc1nc(Nc2cccc(N3CCCC3=O)c2)ncc1C#N (stereo not drawn) ?
Result block: 1.99[b]

Query block: Query (compound): "O=C1OCCN1c1cccc(Nc2ncc(Cl)c(NCC(F)(F)F)n2)c1" ; field requested: log p
Result block: 2.01[b]

Query block: I would be grateful if you could share the reported log p for "O=C1COCCN1c1cccc(Nc2ncc(Br)c(NCC(F)F)n2)c1" .
Result block: 1.51[b]

Query block: // lookup log p for "CC(C)[C@@H]1COC(=O)N1c1cccc(Nc2ncc(Cl)c(NC3CCC3)n2)c1"
Result block: 2.38[b]

Query block: What log p value was documented for this compound, "O=C1CCCCN1c1cccc(Nc2ncc(Br)c(NCC(F)F)n2)c1" ?
Result block: 1.75[b]

Query block: Reported log p for CC1CCN(c2cccc(Nc3ncc(Cl)c(N(C)C4CC4)n3)c2)C1=O (stereo not drawn) : what is it?
Result block: 2.66[b]

Query block: Endpoint output: log p of CC1CCC(=O)N1c1cccc(Nc2ncc(Br)c(NCC(F)F)n2)c1 (stereo not drawn) . Value?
Result block: 1.91[b]

Query block: GET /values?readout=log p&item= "Cc1ccc(Nc2ncc(Cl)c(NC3CCC3)n2)cc1N1CCOC1=O"
Result block: 1.6[b]

Query block: Which value of log p has been reported for CC(C)Nc1nc(Nc2cccc(N3C(=O)CCC3C)c2)ncc1Br (stereo not drawn) in the records?
Result block: 1.73[b]

Query block: Request the reported log p associated with CCC1COC(=O)N1c1cccc(Nc2ncc(Cl)c(NC3CCC3)n2)c1 (stereo not drawn)
Result block: 2.09[b]

Query block: So what does the record say about log p for "O=C1OCCN1c1ccc(Nc2ncc(Cl)c(NCC(F)(F)F)n2)cc1" ?
Result block: 1.83[b]

Query block: # query: log p of entry CC(C)C1COC(=O)N1c1cccc(Nc2ncc(Br)c(NCC(F)F)n2)c1 (stereo not drawn)
Result block: 2.5[b]

Query block: What measured log p goes with CC(CF)Nc1nc(Nc2cccc(N3CCCC3=O)c2)ncc1C(F)(F)F (stereo not drawn) ?
Result block: 2.48[b]

Query block: Data request, read-out log p, for "COc1ccc(Nc2ncc(C(F)(F)F)c(NC3CC3)n2)cc1N1CCCC1=O"
Result block: 1.98[b]

Query block: log p for O=C1OCC(c2ccccc2)N1c1cccc(Nc2ncc(Cl)c(NC3CC3)n2)c1 (stereo not drawn) ?
Result block: 2.27[b]

Query block: I'd like to know its log p. The compound in question is "CC1(C)CC(=O)N(c2cccc(Nc3ncc(Br)c(NC4CC4)n3)c2)C1=O"
Result block: 1.99[b]

Query block: Name the reported log p value associated with the compound CC1CC(Nc2nc(Nc3cccc(N4C(=O)CC(C)C4=O)c3)ncc2Br)C1 (stereo not drawn)
Result block: 2.23[b]

Query block: What does the record list as log p for CC1COC(=O)N1c1ccc(Nc2ncc(Cl)c(NCC(F)F)n2)cc1 (stereo not drawn) ?
Result block: 1.68[b]

Query block: Query (compound): "O=C1CCCN1c1cccc(Nc2ncc(C(F)(F)F)c(NC3CCCC3)n2)c1" ; field requested: log p
Result block: 3.04[b]

Query block: # input compound: "O=C1N(CCCl)CCN1c1cccc(Nc2ncc(Br)c(NC3CC3)n2)c1" ; wanted: its log p
Result block: 1.92[b]

Query block: Name the recorded log p for "CC(C)Nc1nc(Nc2cccc(N3CCCC3=O)c2)ncc1C(F)(F)F" .
Result block: 2.35[b]

Query block: Given the entry "CCNc1nc(Nc2cccc(N3CCCC3=O)c2)ncc1Cl" , report its measured log p.
Result block: 1.29[b]

Query block: Would you mind telling me what log p value was observed for "CC1(C)CC(=O)N(c2cccc(Nc3ncc(C(F)(F)F)c(NCC4CC4)n3)c2)C1=O" ?
Result block: 2.81[b]

----------
- TEST NAME: log P by LC-MS, method [b], acid range pH 2.7
- Format: physicochemical
- CONDITION: pH 2.7
READOUT: log p

Query block: What value of measured log p is listed for CC1CC(=O)N(c2cccc(Nc3ncc(Cl)c(NC4CCC4)n3)c2)C1 (centres unmarked) [Example 97] ?
Result block: 2.02[b]

Query block: Record request: log p value, item CC(C)Nc1nc(Nc2cccc(N3CCOCC3=O)c2)ncc1Br [Example 151]
Result block: 1.47[b]

Query block: Quick one: log p of CC1COC(=O)N1c1cccc(Nc2ncc(Cl)c(NCC3CC3)n2)c1 (centres unmarked) [Example 116] ?
Result block: 1.64[b]

Query block: Field request: log p | item: O=C1CCC(=O)N1c1cccc(Nc2ncc(Cl)c(NC3CCC3)n2)c1 [Example 203]
Result block: 1.48[b];

Query block: Could you tell me which log p is on file for CC1COC(=O)N1c1cccc(Nc2ncc(Cl)c(NCC(F)F)n2)c1 (centres unmarked) [Example 155] ?
Result block: 1.81[b]

Query block: So what does the record say about log p for CC1CC(=O)N(c2cccc(Nc3ncc(Cl)c(NC4CC4)n3)c2)C1 (centres unmarked) [Example 96] ?
Result block: 1.75[b]

Query block: Which log p reading was recorded for the compound CC1CC1Nc1nc(Nc2cccc(N3CCCCC3=O)c2)ncc1Br (centres unmarked) [Example 223] ?
Result block: 1.81[b]

Query block: Query: log p; subject: O=c1ccccn1-c1cccc(Nc2ncc(Br)c(NC3CCC3)n2)c1 [Example 221]
Result block: 1.71[b]

Query block: Quick one: log p of CC1CCN(c2cccc(Nc3ncc(Br)c(NC4CCC4)n3)c2)C1=O (centres unmarked) [Example 27] ?
Result block: 2.09[b]

Query block: Please report the recorded log p for CC1COC(=O)N1c1ccc(Nc2ncc(Cl)c(N(C)C3CC3)n2)cc1 (centres unmarked) [Example 179] .
Result block: 2.16[b]

Query block: For COc1cc(Nc2ncc(C(F)(F)F)c(NC3CC3)n2)cc(N2CCCC2=O)c1 [Example 326] , what is its reported log p?
Result block: 2.47[b]

Query block: What does the record list as log p for C[C@@H]1COC(=O)N1c1cccc(Nc2ncc(Br)c(NC3CC3)n2)c1 [Example 104] ?
Result block: 2.03[b]

Query block: What value of measured log p is listed for CNc1nc(Nc2cccc(N3CCCC3=O)c2)ncc1C(F)(F)F [Example 323] ?
Result block: 1.63[b]

Query block: Form field: reported log p of CC(C)[C@@H]1COC(=O)N1c1cccc(Nc2ncc(Cl)c(NC3CC3)n2)c1 [Example 75]
Result block: 2.39[b]

Query block: Tell me the measured log p of O=C1CCCN1c1cccc(Nc2ncc(Cl)c(N3CCCC3)n2)c1 [Example 222] , please.
Result block: 1.67[b]

Query block: Which measured log p value corresponds to CC(C)Nc1nc(Nc2cccc(N3C(=O)CC(C)(C)C3=O)c2)ncc1Cl [Example 140] ?
Result block: 1.81[b]

Query block: Using the record for COCC(C)Nc1nc(Nc2cccc(N3CCCC3=O)c2)ncc1Br (centres unmarked) [Example 5] , report its log p.
Result block: 1.6[b]

Query block: Which log p reading was recorded for the compound O=C1OCC(c2ccccc2)N1c1cccc(Nc2ncc(Br)c(NC3CCC3)n2)c1 (centres unmarked) [Example 90] ?
Result block: 2.8[b]

Query block: # log p lookup, item CC1CC1Nc1nc(Nc2cccc(N3CCOC3=O)c2)ncc1Cl (centres unmarked) [Example 205]
Result block: 1.67[b]

Query block: Which measured log p value corresponds to CC(C)Nc1nc(Nc2cccc(N3C(=O)CC(C)C3=O)c2)ncc1Br (centres unmarked) [Example 153] ?
Result block: 1.68[b]
